Biological target: T1, EsCas13d, nuclease-dead (Eubacterium siraeum, UniProt B0MS50, R295A;H300A;R849A;H854A)
T1 sequence: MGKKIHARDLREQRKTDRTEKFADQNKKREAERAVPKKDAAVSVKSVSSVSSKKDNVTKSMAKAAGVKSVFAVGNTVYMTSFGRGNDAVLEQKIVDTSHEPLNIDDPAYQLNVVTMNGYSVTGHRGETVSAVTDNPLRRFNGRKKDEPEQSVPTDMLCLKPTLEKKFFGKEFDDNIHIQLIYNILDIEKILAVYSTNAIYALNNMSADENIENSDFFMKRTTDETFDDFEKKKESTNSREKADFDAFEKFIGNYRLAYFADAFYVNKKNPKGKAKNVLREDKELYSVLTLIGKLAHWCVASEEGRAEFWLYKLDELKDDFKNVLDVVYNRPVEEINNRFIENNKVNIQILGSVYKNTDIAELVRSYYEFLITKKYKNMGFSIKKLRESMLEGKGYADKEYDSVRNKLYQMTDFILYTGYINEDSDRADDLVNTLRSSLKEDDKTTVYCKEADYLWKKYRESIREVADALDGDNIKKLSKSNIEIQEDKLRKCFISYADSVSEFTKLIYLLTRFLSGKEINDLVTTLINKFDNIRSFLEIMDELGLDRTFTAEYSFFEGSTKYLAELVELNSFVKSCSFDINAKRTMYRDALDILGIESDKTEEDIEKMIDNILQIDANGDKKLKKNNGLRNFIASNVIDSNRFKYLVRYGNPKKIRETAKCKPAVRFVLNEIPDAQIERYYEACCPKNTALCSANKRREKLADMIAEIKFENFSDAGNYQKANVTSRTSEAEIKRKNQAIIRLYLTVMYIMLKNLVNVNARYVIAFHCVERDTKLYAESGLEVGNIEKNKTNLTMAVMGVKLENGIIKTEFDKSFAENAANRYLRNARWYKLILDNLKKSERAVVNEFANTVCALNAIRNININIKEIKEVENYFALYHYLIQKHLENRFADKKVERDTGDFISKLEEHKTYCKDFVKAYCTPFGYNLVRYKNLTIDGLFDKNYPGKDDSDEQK
Assay: crRNA (strand 1, pre-loaded); Mg2+; 40 mM Tris-HCl pH 7.5, 150 mM NaCl, 6 mM MgCl2, 1 mM DTT, 0.1% Tween-20, 0.2 mg/ml BSA; 25 C; 10 min per concentration, then washed
Settings: tags: His6-TwinStrep-SUMO cleaved; N-terminal SNAP kept (SNAP-Surface 488); label: 3' end held by stalled T7 RNA polymerase
Please respond with reported Kd for every item in the list.
Numbers only, in nM.

Reference set, count: 3
target 2 MT 5'PFS GUC 3'PFS UGA (mixed) RNA 1: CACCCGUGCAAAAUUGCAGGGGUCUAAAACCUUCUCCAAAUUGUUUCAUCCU RNA 2: GGGAAUGGAUCCACAUCUACGAAUUCGUCAGGAUGAAACAAUUUGGAGAAGUGAAGAUCGGAAGAGCACACGU; 17.4
target 2 MT 5'PFS CGA 3'PFS CCA (mixed) RNA 1: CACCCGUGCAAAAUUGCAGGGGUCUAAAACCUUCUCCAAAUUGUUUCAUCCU RNA 2: GGGAAUGGAUCCACAUCUACGAAUUCCGAAGGAUGAAACAAUUUGGAGAAGCCAAGAUCGGAAGAGCACACGU; 31
target 1 insG 3' of 21,insA 3' of 13 (mixed) RNA 1: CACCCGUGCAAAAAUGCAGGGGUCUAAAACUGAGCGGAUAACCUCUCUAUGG RNA 2: GGGAAUGGAUCCACAUCUACGAAUUCGUACCGAUAGAGAGAGUUAUCCGCUCACCGAGAUCGGAAGAGCACACGU; 44

Now consider the entry below.
Notebook: target 1 C2A,A16G (mixed) RNA 1: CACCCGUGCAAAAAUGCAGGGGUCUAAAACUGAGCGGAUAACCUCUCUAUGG RNA 2: GGGAAUGGAUCCACAUCUACGAAUUCGUACCAUAGGGAGGUUAUCCGCUAACCGAGAUCGGAAGAGCACACGU , Kd read as 28.5
